# Tested on: NCI-H322M lung
# protocol notes: NCI-60 one-dose screen, 48 h (100 = growth as untreated, 0 = no growth, -100 = all killed)
# conditions: 10 µM unless noted
The panel holds about 83,000 compounds, 20% with a hit somewhere; the sample as a whole holds those more often. The source made the active and inactive calls. How the source made its calls: active means growth percent below 10; inactive means the rest.
result type: growth

> print(dat)
                              sample.smiles    value.reported
1  N=C(N)c1ccc(-c2ccc(-c3ccc(Cl)c(Cl)c3)o2)cc1     -23% (active)
2  C#C[C@]1(O)CC[C@H]2[C@@H]3CC=C4c5sc(N=C(N)N)nc5CC[C@]4(C)[C@H]3CC[C@@]21C  27.9% (inactive)
3  COc1c(C)cnc(CSc2nc(-c3ccc(C)cc3)cn2-c2ccc(Cl)cc2)c1C  80.9% (inactive)
4  COc1ccccc1NC(=O)Nc1ccc(-c2nc3ccccc3o2)cc1  88.7% (inactive)
5  CCN(CC)N=Nc1nn(C(=O)Nc2ccc(Cc3ccccc3)cc2)c2ccc(Cl)cc12  82.5% (inactive)
6  C[C@@H]1C(=O)N(C[C@H](Cc2ccccc2)N(Cc2ccccc2)Cc2ccccc2)[C@]1(Cc1ccccc1)C(=O)OC(C)(C)C  87.9% (inactive)

[ask] For the molecule `Nc1c(C(=O)Nc2ccccc2)sc2nc3c(cc12)CCCCCC3` , give its measured growth value.
[reply] 29.2% (inactive)

[ask] For the molecule `NS(=O)(=O)c1cnccc1-n1ccc(=O)c(S(N)(=O)=O)c1` , give its measured growth value.
[reply] 94.2% (inactive)

[ask] For the molecule `Fc1ccc(Nc2ccc3cc(OCCCN4CCOCC4)ccc3n2)cc1F` , give its measured growth value.
[reply] 71.4% (inactive)

[ask] For the molecule `Clc1ccc(/C=C/c2nc(Nc3ccc(Cl)cc3)c3ccccc3n2)cc1` , give its measured growth value.
[reply] 96.4% (inactive)

[ask] For the molecule `CC(C)(C)Nc1c(-c2c3ccccc3cc3ccccc23)nc2ccccn12` , give its measured growth value.
[reply] 71.2% (inactive)

---

// growth lookup, one value per entry
# Tested on: 786-0 renal
# protocol notes: NCI-60 one-dose screen, 48 h (100 = growth as untreated, 0 = no growth, -100 = all killed)
# conditions: 10 µM unless noted
The panel holds about 83,000 compounds, 20% with a hit somewhere; the sample as a whole holds those more often.
Report only the number, with the unit % understood.

Example results:
> print(dat)
                                   compound  result.type  value.reported
1  COc1cc(C(=O)Nc2cc(O)c(CC=C(C)C)c(O)c2)cc2c1O[C@]1(C)CC[C@@H](O)C(C)(C)[C@H]1C2       growth           -11.7
2  CCCCN1CCN(c2ccc3nc(-c4ccc5nc(-c6cc(OC)c(OC)c(OC)c6)[nH]c5c4)[nH]c3c2)CC1       growth            50.6
3             Cc1ccc(O)c(C(=O)c2ccccc2Cl)c1       growth            99.1

[ask] Fill in growth for `CCOC(=O)c1ccc(-c2ccc3cc(OC)ccc3c2)nc1C` tested with 786-0 renal.
[reply] 85.7

[ask] Fill in growth for `NS(=O)(=O)Oc1ccc(NC(=O)C23CC4CC(CC(C4)C2)C3)cc1Cl` tested with 786-0 renal.
[reply] 98.2

[ask] Fill in growth for `COc1cc(C(=O)/C=C/c2c(C(F)(F)F)nc3ccccn23)cc(OC)c1OC` tested with 786-0 renal.
[reply] -60.9

---

# System: K-562 leukemia
# protocol notes: NCI-60 one-dose screen, 48 h
# conditions: 10 µM unless noted
About 83,000 compounds went through this panel and 20% of them were active in at least one assay; those are over-represented in the sample as a whole. The source made the active and inactive calls. Rule for the calls: active = growth percent below 10; inactive = the rest.
Could you please pick one outcome from this set? TRUE (active), FALSE (inactive)

Please review the following examples before continuing.
> print(dat)
                                   molecule  class.name
1  CCCCCCCC/C=C\CCCCCCCC(=O)Oc1cccc2cccnc12       FALSE
2         Cc1cc(-c2ccccc2)cc(SC#N)[n+]1[O-]       FALSE
3        CCCCCCCCCCCCCCCCCC1=NCCN1C(=O)OCCO        TRUE
4   CCNCCNc1cc(C2CCCC2)c(C#N)c2nc3ccccc3n12        TRUE
5   O=C(Nc1ccc(N2CCCCC2)c(Cl)c1)c1ccc(Br)o1       FALSE

[ask] Assay result, entry COc1ccc(C(=O)/C=C/C23c4ccccc4C(c4ccccc42)C2C(=O)NC(=O)C23)cc1 (stereo unspecified) — outcome?
[reply] FALSE

[ask] Assay result, entry `CN(C)c1ccc(/C=C/c2c(F)cccc2F)cc1` — outcome?
[reply] FALSE

[ask] Assay result, entry `CCc1nc2ccccc2[nH]1` — outcome?
[reply] FALSE

---

# Test system: HCT-116 colon
# protocol notes: NCI-60 one-dose screen, 48 h (100 = growth as untreated, 0 = no growth, -100 = all killed)
# conditions: 10 µM unless noted
About 83,000 compounds went through this panel and 20% of them were active in at least one assay; those are over-represented in the sample as a whole.
// growth lookup, one value per entry
Report only the number, with the unit % understood.

Example results:
> print(dat)
                                   compound  measurement.target  measure.unit  value.reported
1  COc1ccc(-c2nc3sc4c(c3c(=O)[nH]2)CCCC4)c2ccccc12       HCT-116 colon             %            10.7
2   NC(=O)c1c(NC(=O)c2ccccn2)sc2c1CCC(=O)C2       HCT-116 colon             %            9.08
3  C=C1C(=O)O[C@H]2[C@H]1CC/C(COC(=O)/C=C\C(=O)NCc1ccc(Cn3c(=O)sn(-c4ccc(C#N)cc4)c3=O)cc1)=C\CC[C@@]1(C)O[C@@H]21       HCT-116 colon             %           -55.7
4         Cc1ccc(NSc2ccccc2[N+](=O)[O-])cc1       HCT-116 colon             %            20.3
5  CCOc1ccc2nc(-c3cccc(OCC(=O)NC(C)C)c3)nc(Nc3ccc(-c4cn[nH]c4)cc3)c2c1       HCT-116 colon             %            5.64
6  N#Cc1c(N)n2c(nc1=Nc1ccc([N+](=O)[O-])cc1)sc1cc(Cl)ccc12       HCT-116 colon             %            94.3
7  Nc1c(C(=O)c2ccc(Cl)s2)sc2nc3c(cc12)CCCC3       HCT-116 colon             %             105
8  CN1C[C@@H](c2ccc(Cl)cc2)[C@]2(NC(=S)N(c3ccc(F)c(Cl)c3)C2=O)[C@@]12C(=O)NC1C=CC(Cl)=C[C@H]12 (some centres undefined)       HCT-116 colon             %             -49

[ask] For the compound `CC[C@@H](C[C@H](CCO)c1ccccc1)c1cc2ccccc2o1` , give its measured growth value.
[reply] 76.6

[ask] For the compound `COc1ccc(/C(C)=C(\c2ccc(Cl)cc2)c2ccc(OCCN3CCCCC3)cc2)cc1F` , give its measured growth value.
[reply] 19.7

[ask] For the compound O=C1CSC(c2ccccc2Cl)N1c1nnc(Cn2cnnc2)o1 (centres undefined) , give its measured growth value.
[reply] 13.3

[ask] For the compound `COc1c(C)cnc(CSc2nc(-c3ccc(C)cc3)cn2-c2ccc(Cl)cc2)c1C` , give its measured growth value.
[reply] 79.8

[ask] For the compound `COc1cc(/C=C/C(=O)c2cccc(-n3cc(-c4ccc(Cl)cc4)[nH]c3=O)c2)cc(OC)c1OC` , give its measured growth value.
[reply] -45.7

[ask] For the compound `Cc1cc(C(c2ccccc2)c2ccccc2)ccc1NS(=O)(=O)c1ccccc1` , give its measured growth value.
[reply] 82.1

---

# System: TK-10 renal
# protocol notes: NCI-60 one-dose screen, 48 h (100 = growth as untreated, 0 = no growth, -100 = all killed)
# conditions: 10 µM unless noted
This is part of a sample that, as a whole, favours compounds with a hit. Of some 83,000 tested, about 20% had one in any assay.
// growth lookup, one value per entry
Report only the number, with the unit % understood.

[ask] Fill in growth for `COc1ccc(/C(C)=C(\c2ccc(Cl)cc2)c2ccc(OCCN3CCCCC3)cc2)cc1F` tested with TK-10 renal.
[reply] 68.7

[ask] Fill in growth for `COc1cccc(-c2nc3sccn3c2-c2ccnc(NCCNS(=O)(=O)c3c(Cl)cccc3Cl)c2)c1` tested with TK-10 renal.
[reply] 68.5

[ask] Fill in growth for `COc1ccc(-c2nnc(-c3ccc4c(c3)nc(-c3ccccc3)n4C3CCCCC3)o2)cc1` tested with TK-10 renal.
[reply] 68.9
